Here, each record is paired with measured TGI data.
System: RXF 393 renal
experimental_details: NCI tumour cell line growth inhibition, 48 h
Where a SMILES comes first, the peptide text is derived from it. The star is where a group is joined. Ethyl(2-NMe3+) = C[N+](C)(C)CC*; Boc = CC(C)(C)OC(=O)*

A selection of reference data follows.
molecule | TGI
COC(=O)NC12CC3CC(CC(F)(C3)C1)C2 | > 100 µM
Oc1cc(-c2ccc(Cl)cc2)cn2c1nc1ccccc12 | > 100 µM

// query TGI value for entry COC(=O)C1CCCN1C(=O)[C@@H]1CCCN1C(=O)[C@H](Cc1c[nH]c2ccccc12)NC(=S)Nc1cc(C(F)(F)F)cc(C(F)(F)F)c1 (some centres undefined)
4.4 µM

Let us now turn to CC(C)(C)OC(=O)NC(CCC(=O)OCc1ccccc1)C(=O)NCCCO (centres undefined)
> 100 µM

Let us now turn to C=C1C(=O)OC2C=C(CCC(C)=O)C(C)C(OC(C)=O)CC12 (centres undefined)
5.42 µM

Let us now turn to CC(NC(=O)C(Cc1ccc(OCC[N+](C)(C)C)cc1)NC(=O)OC(C)(C)C)C(=O)NC(Cc1ccccc1)C(=O)NCC(N)=O (centres undefined) (Boc-Y(Ethyl(2-NMe3+))AFG-NH2; configuration not given here)
24 µM

Let us now turn to Cc1cc2sc(C)[n+](CCCOS(=O)(=O)[O-])c2cc1C
> 100 µM

Let us now turn to Nc1ccc(CCSSCCc2ccc(N)cc2)cc1
44.6 µM

Let us now turn to COc1cc2c(cc1OC)[C@H]1C(COC(=O)c3ccccc3)CSC(=Nc3ccccc3)N1CC2 (some centres undefined)
> 100 µM

* * *

System: MALME-3M melanoma
experimental_details: NCI tumour cell line growth inhibition, 48 h
property_measured: TGI

compound | target_of_assay | data_value
OC(c1cc(-c2ccc(Cl)cc2)nc2ccccc12)C1CCCCN1 (centres undefined) | MALME-3M melanoma | 2.94 µM
Cc1ccc2nc(-c3ccccc3)c(N=O)n2c1 | MALME-3M melanoma | > 100 µM
CN(N)/N=N/c1nc[nH]c1[N+](=O)[O-] | MALME-3M melanoma | > 100 µM
Cc1ccc(N=Nc2ccc(N)cc2C)c(S(N)(=O)=O)c1 | MALME-3M melanoma | > 100 µM
C/C(=N\NC(=O)c1ccncc1)c1ccccc1F | MALME-3M melanoma | > 10 µM

// query TGI value for entry CC(C)COCC(CN(Cc1ccccc1)c1ccccc1)N1CCCC1 (centres undefined)
4.74 µM

Let us now turn to Oc1ccccc1C=Nc1nc(SCc2ccccc2)nc2[nH]ncc12
> 100 µM

Let us now turn to CC(C)c1c(O)ccc2c1CCC1C(C)(C)CCCC21C (centres undefined)
35.6 µM

Let us now turn to COc1ccc(NC(=O)/C(=N/NC(N)=S)C2C(=O)NC(=S)NC2=O)c(OC)c1
> 100 µM

* * *

System: HCT-116 colon
experimental_details: NCI tumour cell line growth inhibition, 48 h
Here, each record is paired with measured TGI data.

molecule | TGI
CC1=NN(C(=O)CC(=O)Nc2ccc(C)cc2)C(=O)C1N=Nc1ccc(S(=O)(=O)c2ccc(N=NC3C(=O)N(C(=O)CC(=O)Nc4ccc(C)cc4)N=C3C)cc2)cc1 (configuration not stated) | > 100 µM

Next molecule, please.
Form field - read-out: TGI; system: HCT-116 colon; submitted item: CC(NCCC(=O)N(CCC(=O)N(CCC(=O)N(CCC(=O)N(CCC(=O)N(CCC(=O)N(CCC(=O)N(CCC(=O)N(CCC(=O)N(CCC(=O)O)[C@H](C)c1ccccc1)[C@H](C)c1ccccc1)[C@H](C)c1ccccc1)[C@H](C)c1ccccc1)[C@H](C)c1ccccc1)[C@H](C)c1ccccc1)[C@H](C)c1ccccc1)[C@H](C)c1ccccc1)[C@H](C)c1ccccc1)c1ccccc1 (some centres not stated)
> 19.9 µM
